Reference for the values: ChEMBL document CHEMBL1201862

Target: UniProtKB P9WMR3
Sequence (P9WMR3 whole entry): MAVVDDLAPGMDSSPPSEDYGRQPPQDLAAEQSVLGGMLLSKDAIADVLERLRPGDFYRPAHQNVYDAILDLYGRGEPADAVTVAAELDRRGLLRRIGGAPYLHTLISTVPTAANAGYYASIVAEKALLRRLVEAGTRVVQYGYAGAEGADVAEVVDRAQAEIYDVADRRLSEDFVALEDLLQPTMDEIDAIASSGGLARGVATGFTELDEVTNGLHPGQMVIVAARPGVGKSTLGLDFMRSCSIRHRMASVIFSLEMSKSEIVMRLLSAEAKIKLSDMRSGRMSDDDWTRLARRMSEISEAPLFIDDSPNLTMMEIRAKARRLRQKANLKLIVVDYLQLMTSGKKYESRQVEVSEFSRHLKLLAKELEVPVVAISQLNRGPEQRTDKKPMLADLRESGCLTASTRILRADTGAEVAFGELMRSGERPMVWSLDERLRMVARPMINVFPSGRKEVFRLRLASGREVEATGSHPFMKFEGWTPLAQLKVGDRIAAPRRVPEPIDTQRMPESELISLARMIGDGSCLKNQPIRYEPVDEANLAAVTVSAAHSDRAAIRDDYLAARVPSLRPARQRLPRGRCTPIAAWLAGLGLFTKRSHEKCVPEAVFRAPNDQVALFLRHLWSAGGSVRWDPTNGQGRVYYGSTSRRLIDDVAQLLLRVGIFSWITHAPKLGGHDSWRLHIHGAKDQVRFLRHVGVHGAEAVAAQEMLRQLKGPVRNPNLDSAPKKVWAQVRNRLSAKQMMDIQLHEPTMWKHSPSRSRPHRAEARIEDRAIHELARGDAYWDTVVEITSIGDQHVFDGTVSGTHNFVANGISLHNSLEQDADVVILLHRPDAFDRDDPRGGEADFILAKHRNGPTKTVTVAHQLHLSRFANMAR
Assay: DnaB intein splicing inhibitors, dose response, biochemical, cell-free fluorescence (AID 449749)
Format: functional
Active and inactive are the calls of the source. Cut-off read from the data, not from the text of the source: actives have a measured AC50 and inactives only a lower limit.
Please reply with one of these outcomes: active, inactive

Problem: // param item: `CC(=O)NC(=S)c1c(N)n(Cc2ccccc2)c(=O)n(C)c1=O` ; yields the recorded call
Result: inactive

Problem: Note, next up: `Cc1cc(C(=O)c2ccccc2)c(NC(=O)CCl)s1`
Result: active

Problem: Note, next up: O=C(NC1C(=O)NNC1c1ccc(Cl)cc1)c1ccc(F)cc1 (stereo unspecified)
Result: active

Problem: Note, next up: `N#Cc1ncc(Cc2ccccc2)nc1C#N`
Result: active

Problem: Note, next up: CC1=NNC(=O)C1C(c1cccc(O)c1)C(C#N)C#N (stereo unspecified)
Result: active

Problem: Note, next up: `c1ccc(Nc2nc(NCc3ccco3)c3ccccc3n2)cc1`
Result: active

Problem: Note, next up: `CCOc1cc(C(c2c(C)n[nH]c2O)c2c(C)n[nH]c2O)cc(Br)c1OC`
Result: active

Problem: Note, next up: `CCN(CC)S(=O)(=O)c1ccc(NN=C(C#N)C#N)cc1`
Result: active

Problem: Note, next up: `Cn1c(-[n+]2c(-c3ccccc3)cc(-c3ccccc3)cc2-c2ccccc2)nc2c([N+](=O)[O-])cccc21`
Result: active
